- study.target: human rhinovirus 16 polymerase (HRV16pol) (Human rhinovirus 16)
- test.summary: biochemical
- conditions: HRV16pol, 2.5 h at 30° C., mean of several independent experiments; read-out: IC50
pIC50: −log10 of the molar value.
measurement.label: pIC50

## Input Provide pIC50 value for the following molecule: `C[C@@]1(Cl)[C@H](O)[C@@H](COP(=O)(O)OP(=O)(O)OP(=O)(O)O)O[C@H]1n1cnc2c(=O)[nH]c(N)nc21`
## Output > 6.00

## Input Please list pIC50 recorded for the molecule `O=c1ccn([C@@H]2O[C@](CF)(COP(=O)(O)OP(=O)(O)OP(=O)(O)O)[C@@H](O)[C@]2(O)CF)c(=O)[nH]1`
## Output > 5.00

## Input For the molecule `C#C[C@@]1(O)[C@H](O)[C@@](CCl)(COP(=O)(O)OP(=O)(O)OP(=O)(O)O)O[C@H]1n1cnc2c(N)ncnc21` , report pIC50.
## Output > 6.00

## Input # return recorded pIC50 for input `C[C@@]1(F)[C@H](O)[C@@](CF)(COP(=O)(O)OP(=O)(O)OP(=O)(O)O)O[C@H]1n1cnc2c(=O)[nH]c(N)nc21`
## Output > 6.00

## Input Note pIC50 for the molecule shown: `C[C@]1(F)[C@H](n2ccc(N)nc2=O)O[C@](F)(COP(=O)(O)OP(=O)(O)OP(=O)(O)O)[C@H]1O`
## Output > 6.00

## Input Please report pIC50 for the following molecule: `C[C@@]1(O)[C@H](O)[C@@](CN=[N+]=[N-])(COP(=O)(O)OP(=O)(O)OP(=O)(O)O)O[C@H]1n1ccc(=O)[nH]c1=O`
## Output > 4.00

## Input Return pIC50 for the following molecule: `N#C[C@@]1(n2ccc(N)nc2=O)O[C@](CF)(COP(=O)(O)OP(=O)(O)OP(=O)(O)O)[C@@H](O)[C@H]1O`
## Output > 5.00

## Input Please supply the value of reported pIC50 for the item `C[C@]1(N=[N+]=[N-])[C@H](n2ccc(N)nc2=O)O[C@](F)(COP(=O)(O)OP(=O)(O)OP(=O)(O)O)[C@H]1O`
## Output > 5.00

## Input Give the reported value of pIC50 for this record: `C#C[C@]1(COP(=O)(O)OP(=O)(O)OP(=O)(O)O)O[C@@H](n2ccc(N)nc2=O)C(F)(F)[C@@H]1O`
## Output > 5.00

## Input Fill in reported pIC50 for this entry: `CC#C[C@@]1(O)[C@H](O)[C@@](CF)(COP(=O)(O)OP(=O)(O)OP(=O)(O)O)O[C@H]1n1ccc(=O)[nH]c1=O`
## Output > 5.00

## Input Report measured pIC50; entry is `Nc1ccn([C@@H]2O[C@@](COP(=O)(O)OP(=O)(O)OP(=O)(O)O)(C(F)F)[C@H](O)[C@@H]2F)c(=O)n1`
## Output > 5.00

## Input Tell me measured pIC50 for `C#C[C@@]1(n2cnc3c(=O)[nH]c(N)nc32)O[C@H](COP(=O)(O)OP(=O)(O)OP(=O)(O)O)[C@@H](O)[C@H]1F` please.
## Output > 5.00

## Input Return pIC50 for the following molecule: `C[C@]1(F)[C@H](n2cnc3c(=O)[nH]c(N)nc32)O[C@](F)(COP(=O)(O)OP(=O)(O)OP(=O)(O)O)[C@H]1O`
## Output > 6.00

====

- Test system: human rhinovirus 16 (HRV-16), coxasackie B3 (CVB3), enterovirus-68 (EV-68) and enterovirus-71 (EV-71)
- test.summary: Enterovirus assay (four viruses, CellTiter Glo)
- Format: cell-based
- conditions: mean over HRV-16, CVB3, EV-68 and EV-71; read-out: EC50 mean (across four viruses)
measurement.label: EC50

## Input Assign EC50 to the following record: `CC(C)OC(=O)OCOP(=O)(OCOC(=O)OC(C)C)OC[C@@]1(CF)O[C@@H](n2ccc(=O)[nH]c2=O)[C@](C)(O)[C@@H]1O`
## Output 1390 nM

====

Give IC50 for every item shown.
- study.target: human rhinovirus 16 polymerase (HRV16pol) (Human rhinovirus 16, UniProt Q82122)
- Sequence (Q82122 1694-2153 limits assumed): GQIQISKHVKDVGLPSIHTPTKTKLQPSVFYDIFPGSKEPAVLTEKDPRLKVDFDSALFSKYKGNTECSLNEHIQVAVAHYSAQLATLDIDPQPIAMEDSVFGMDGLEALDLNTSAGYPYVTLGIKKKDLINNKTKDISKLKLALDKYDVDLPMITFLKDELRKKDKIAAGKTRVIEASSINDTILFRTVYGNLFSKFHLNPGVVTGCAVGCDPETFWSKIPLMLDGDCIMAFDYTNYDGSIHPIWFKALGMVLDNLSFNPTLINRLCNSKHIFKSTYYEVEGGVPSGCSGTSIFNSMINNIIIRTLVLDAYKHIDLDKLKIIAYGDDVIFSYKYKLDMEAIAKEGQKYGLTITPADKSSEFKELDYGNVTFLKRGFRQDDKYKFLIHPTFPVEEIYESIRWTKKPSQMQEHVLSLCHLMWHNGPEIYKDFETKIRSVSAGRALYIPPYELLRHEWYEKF
- test.summary: biochemical
- conditions: HRV16pol, 2.5 h at 30° C., mean of several independent experiments; read-out: IC50

## Input Note IC50 for the compound shown: C[C@@]1(O)[C@H](O)[C@@](CF)(COP(=O)(O)OP(=O)(O)OP(=O)(O)O)O[C@H]1n1ccc2c(N)ncnc21 [compound 254]
## Output < 1000 nM

## Input Give recorded IC50. C=C[C@@]1(O)[C@H](O)[C@@](CF)(COP(=O)(O)OP(=O)(O)OP(=O)(O)O)O[C@H]1n1ccc(=O)[nH]c1=O [compound 251]
## Output < 10000 nM

## Input Give a short answer stating reported IC50 for C[C@@]1(O)[C@H](O)[C@@](CF)(COP(=O)(O)OP(=O)(O)OP(=O)(O)O)O[C@H]1n1cnc2c(=O)[nH]c(N)nc21 [compound 34] .
## Output < 1000 nM

## Input Give a short answer stating reported IC50 for C[C@@]1(O)[C@H](O)[C@@](CF)(COP(=O)(O)OP(=O)(O)OP(=O)(O)O)O[C@H]1n1ccc(=O)[nH]c1=O [compound 92] .
## Output < 1000 nM

## Input Let me know recorded IC50 for O=c1ccn([C@@H]2O[C@](F)(COP(=O)(O)OP(=O)(O)OP(=O)(O)O)[C@@H](O)[C@]2(O)CF)c(=O)[nH]1 [compound 257] , thanks.
## Output < 10000 nM

## Input Look up and state reported IC50 for C[C@]1(O)[C@H](n2ccc(N)nc2=O)O[C@](F)(COP(=O)(O)OP(=O)(O)OP(=O)(O)O)[C@H]1O [compound 124]
## Output < 1000 nM

## Input Report measured IC50; entry is C[C@]1(O)[C@H](n2ccc(N)nc2=O)O[C@](C)(COP(=O)(O)OP(=O)(O)OP(=O)(O)O)[C@H]1O [compound 243]
## Output < 10000 nM

## Input Indicate the recorded IC50 value for this compound: C#C[C@]1(O)[C@H](n2cnc3c(=O)[nH]c(N)nc32)O[C@](F)(COP(=O)(O)OP(=O)(O)OP(=O)(O)O)[C@H]1O [compound 115]
## Output < 1000 nM

## Input Give the measured IC50 for C#C[C@]1(F)[C@H](n2cnc3c(=O)[nH]c(N)nc32)O[C@](F)(COP(=O)(O)OP(=O)(O)OP(=O)(O)O)[C@H]1O [compound 123]
## Output < 1000 nM

## Input Look up and report measured IC50 for this entry: C=C[C@]1(COP(=O)(O)OP(=O)(O)OP(=O)(O)O)O[C@@H](n2ccc(N)nc2=O)C(F)(F)[C@@H]1O [compound 79]
## Output < 10000 nM

## Input Look up and state reported IC50 for C#C[C@@]1(O)[C@H](O)[C@@H](COP(=O)(O)OP(=O)(O)OP(=O)(O)O)O[C@H]1n1ccc2c(N)ncnc21 [compound 205]
## Output < 1000 nM

## Input Entry N#C[C@@]1(n2ccc(=O)[nH]c2=O)O[C@](CF)(COP(=O)(O)OP(=O)(O)OP(=O)(O)O)[C@@H](O)[C@H]1O [compound 237] needs its IC50 filled in; supply it.
## Output < 1000 nM

## Input Identify measured IC50 associated with C#C[C@]1(O)[C@H](n2cnc3c(N)ncnc32)O[C@](C)(COP(=O)(O)OP(=O)(O)OP(=O)(O)O)[C@H]1O [compound 59]
## Output < 100000 nM

====

- study.target: human rhinovirus 16 polymerase (HRV16pol) (Human rhinovirus 16, UniProt Q82122)
- test.summary: biochemical
pIC50: −log10 of the molar value.
measurement.label: pIC50

## Input // fetch pIC50 given entry `C[C@@]1(O)[C@H](O)[C@@](CF)(CO[P@](O)(=S)OP(=O)(O)OP(=O)(O)O)O[C@H]1n1ccc(=O)[nH]c1=O`
## Output > 5.00

====

- test.summary: Cytotoxicity in HeLa OHIO host cell line
- Type: cell-based
- conditions: human, HeLa-OHIO cells, n>5
measurement.label: CC50

## Input Return CC50 for the following compound: `CC(C)OC(=O)OCOP(=O)(OCOC(=O)OC(C)C)OC[C@@]1(CF)O[C@@H](n2ccc(=O)[nH]c2=O)[C@](C)(O)[C@@H]1O`
## Output > 100 µM

## Input Specify measured CC50 for CC(C)OC(=O)OCOP(=O)(OCOC(=O)OC(C)C)OC[C@@]1(CF)O[C@@H](n2ccc(=O)[nH]c2=O)[C@](C)(O)[C@@H]1OC(=O)C(N)C(C)C (some centres unmarked) .
## Output > 100 µM

====

- study.target: NS5B570-Con1 (Delta-21) (Hepatitis C virus genotype 1b, UniProt Q9WMX2)
- test.summary: biochemical
measurement.label: IC50

## Input Quote IC50 reported for C#C[C@@]1(O)[C@H](O)[C@@](CF)(COP(=O)(O)OP(=O)(O)OP(=O)(O)O)O[C@H]1n1cnc2c(N)ncnc21 [compound 93] please.
## Output 10 to 100 µM

## Input Provide one value: measured IC50 of C#C[C@@]1(O)[C@H](O)[C@@H](COP(=O)(O)OP(=O)(O)OP(=O)(O)O)O[C@H]1n1cnc2c(=O)[nH]c(N)nc21 [compound 203]
## Output < 1 µM

## Input Identify IC50 associated with the compound Nc1ccn([C@@H]2O[C@H](COP(=O)(O)OP(=O)(O)OP(=O)(O)O)[C@@H](O)[C@]2(O)CF)c(=O)n1 [compound 276]
## Output < 1 µM

## Input Consider the compound CC#C[C@@]1(O)[C@H](O)[C@@](CF)(COP(=O)(O)OP(=O)(O)OP(=O)(O)O)O[C@H]1n1ccc(=O)[nH]c1=O [compound 252] . State its measured IC50.
## Output 1 to 10 µM

## Input Query IC50 for C[C@@]1(Cl)[C@H](O)[C@@H](COP(=O)(O)OP(=O)(O)OP(=O)(O)O)O[C@H]1n1cnc2c(=O)[nH]c(N)nc21 [compound 246]
## Output < 1 µM

## Input Check the records and state IC50 for O=c1ccn([C@@H]2O[C@](CCl)(COP(=O)(O)OP(=O)(O)OP(=O)(O)O)[C@@H](O)C2(F)F)c(=O)[nH]1 [compound 73]
## Output 10 to 100 µM

## Input Read off the recorded IC50 for C[C@]1(F)[C@H](n2cnc3c(=O)[nH]c(N)nc32)O[C@](F)(COP(=O)(O)OP(=O)(O)OP(=O)(O)O)[C@H]1O [compound 19]
## Output < 1 µM

## Input Give IC50 for the following compound: C#C[C@@]1(O)[C@H](O)[C@@](CCl)(COP(=O)(O)OP(=O)(O)OP(=O)(O)O)O[C@H]1n1cnc2c(N)ncnc21 [compound 245]
## Output 10 to 100 µM

## Input Determine its reported IC50: C[C@@]1(O)[C@H](O)[C@@](CF)(CO[P@@](O)(=S)OP(=O)(O)OP(=O)(O)O)O[C@H]1n1ccc(=O)[nH]c1=O [Compound 98]
## Output 10 to 100 µM

## Input Report IC50, nothing else, for this compound: C[C@]1(N=[N+]=[N-])[C@H](n2ccc(N)nc2=O)O[C@](F)(COP(=O)(O)OP(=O)(O)OP(=O)(O)O)[C@H]1O [compound 208]
## Output < 1 µM

## Input Please supply the value of reported IC50 for the item Nc1ccn([C@@H]2O[C@](CF)(COP(=O)(O)OP(=O)(O)OP(=O)(O)O)[C@@H](O)[C@]2(O)CF)c(=O)n1 [compound 258]
## Output 10 to 100 µM

## Input Answer with the recorded IC50 of C=C[C@]1(COP(=O)(O)OP(=O)(O)OP(=O)(O)O)O[C@@H](n2ccc(N)nc2=O)C(F)(F)[C@@H]1O [compound 79] only.
## Output 10 to 100 µM

## Input # return recorded IC50 for entry C[C@@]1(F)[C@H](O)[C@@](CF)(COP(=O)(O)OP(=O)(O)OP(=O)(O)O)O[C@H]1n1cnc2c(=O)[nH]c(N)nc21 [compound 162]
## Output 1 to 10 µM
